- Tested on: CellSensor® ARE-bla Hep G2 cell line
- measurement_protocol: cell-based ARE β-lactamase reporter assay
- Parameters: species or system human
- assay_setup: Homo sapiens, HepG2, read-out: EC50 of ARE-inducing activity
pEC50: −log10 of the molar value.
endpoint_label: pEC50

## Task What measured pEC50 is associated with Cc1ccc(S(=O)(=O)Nc2cc(C(C(=O)OC(C)C)C(=O)C(F)(F)F)c(O)c3ccccc23)c(C)c1 (racemic) [LH602] on CellSensor® ARE-bla Hep G2 cell line?
## Result 4.74 to 4.80
